Reported values of EC50 for individual entries
# assaySystem: human recombinant 5-HT2c receptor (Homo sapiens)
# experimentalProtocol: FLIPR fluorescent Ca2+ mobilisation agonist assay in CHO K1 cells (Method 1)
# setupConditions: agonist affinity, FLIPR
Where a name gives a salt, the structure may show the parent alone.
Write the number in nM without appending the unit.

Past entries and their recorded results:
C1CCN(c2nc3c(c(N4CCSCC4)n2)CCNCC3)C1 : 100
CCNc1nc2c(c(N(C)CC3CC3)n1)CCNCC2 : 543
CN(Cc1ccccc1)c1nc2c(c(N3CCOCC3)n1)CCNCC2 [Example 15] : 202
CC1CNCCc2cnc(Cc3ccccc3)nc21 (single isomer, unassigned) [47 (Peak 2)] : 233
CCNc1nc(N(C)CC)nc2c1CCNCC2 : 77
N#CC1CCCN(c2nc(Cc3ccccc3)nc3c2CCNCC3)C1 (stereo not shown) [Example 40, hydrochloride] : 309

Here is another compound to look at.
Task item: Report EC50 from human recombinant 5-HT2c receptor (Homo sapiens) testing of Clc1ccc(Cc2ncc3c(n2)CCNCC3)cc1
Reply: 192

---

# assaySystem: human recombinant 5-HT2c receptor (Homo sapiens)
# experimentalProtocol: 3H-meselurgine radioligand binding SPA, membranes from Swiss 3T3 cells (Method 2)
# setupConditions: 3H-meselurgine displacement, Cheng-Prusoff; Swiss 3T3 membranes; read-out: Binding Affinity Ki
pKi: −log10 of the molar value. Where a name gives a salt, the structure may show the parent alone.
Values of pKi greater than or equal to 7 map to TRUE; values below map to FALSE.

Previously resolved entries follow.
COc1nc(C(F)(F)c2ccccc2)nc2c1CCNCC2 [Example 72A, hydrochloride] : TRUE
Cc1ccccc1Cc1ncc2c(n1)CCNCC2 [Example 66] : FALSE

Please look at the following compound next.
Task item: Confirm if pKi reported for the compound OC(c1ccccc1)c1ncc2c(n1)CCNCC2 (single isomer, unassigned; stereoisomer 1) [Example 70] is 7 or above.
Reply: FALSE

---

# assaySystem: human recombinant 5-HT2c receptor (Homo sapiens, UniProt P28335)
# Construct: expressed in transfected cells; host or cells: CHO K1 (Chinese hamster ovary), stably transfected
# Sequence (P28335 33-458): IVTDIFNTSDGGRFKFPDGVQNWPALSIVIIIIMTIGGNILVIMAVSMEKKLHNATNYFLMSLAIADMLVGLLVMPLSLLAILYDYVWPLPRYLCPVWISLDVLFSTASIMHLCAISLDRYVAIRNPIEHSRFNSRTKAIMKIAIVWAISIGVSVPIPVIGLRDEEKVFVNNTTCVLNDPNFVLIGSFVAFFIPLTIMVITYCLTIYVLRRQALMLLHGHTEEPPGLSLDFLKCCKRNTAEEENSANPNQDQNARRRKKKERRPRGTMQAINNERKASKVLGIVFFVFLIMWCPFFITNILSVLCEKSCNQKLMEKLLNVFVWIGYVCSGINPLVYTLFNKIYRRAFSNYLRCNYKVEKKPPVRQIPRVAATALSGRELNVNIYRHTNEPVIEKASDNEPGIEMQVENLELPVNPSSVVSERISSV
# experimentalProtocol: FLIPR fluorescent Ca2+ mobilisation agonist assay in CHO K1 cells (Method 1)
# Type: cell-based
# setupConditions: CHO-K1, efficacy, percentage of mean maximal response to 10 μM 5-HT
Where a name gives a salt, the structure may show the parent alone.
reportedProperty: Emax (%)
Please reply with the bare figure in % and do not write the unit itself.

c1ccc(Cc2nc3c(c(OCC4CCCO4)n2)CCNCC3)cc1 (stereo not drawn) : 86.7
OC1CCCN(c2nc(Cc3ccccc3)nc3c2CCNCC3)C1 (stereo not drawn) [Example 18, hydrochloride] : 51.3
Cc1ncccc1COc1nc(Cc2ccccc2)nc2c1CCNCC2 : 70.3
CCN(C)c1nc2c(c(NCC3CC3)n1)CCNCC2 : 69.5
c1ccc(Cc2nc3c(c(-n4cccn4)n2)CCNCC3)cc1 : 83.5
C1Cc2nc(NC3CC3)nc(N3CCSCC3)c2CCN1 : 87.7
c1ccc(Cc2nc3c(c(OCCc4ccccn4)n2)CCNCC3)cc1 : 83.3
FC(F)(F)CCCOc1nc(Cc2ccccc2)nc2c1CCNCC2 : 36.4
c1ccc(CCNc2nc3c(c(N4CCSCC4)n2)CCNCC3)cc1 : 38.8
CC(COc1nc(Cc2ccccc2)nc2c1CCNCC2)N(C)C (stereo not drawn) : 45.7

Task item: Identify Emax associated with the compound Clc1ccc(Cc2ncc3c(n2)CCNCC3)cc1
Reply: 64.7

---

# assaySystem: human recombinant 5-HT2c receptor (Homo sapiens)
# Construct: expressed in transfected cells; host or cells: CHO K1 (Chinese hamster ovary), stably transfected
# experimentalProtocol: FLIPR fluorescent Ca2+ mobilisation agonist assay in CHO K1 cells (Method 1)
# Type: cell-based
# setupConditions: CHO-K1, efficacy, percentage of mean maximal response to 10 μM 5-HT
// FALSE strictly below 70% in Emax; TRUE otherwise

Example entries and their recorded answers appear below.
Fc1cccc(Cc2ncc3c(n2)CCNCC3)c1 : FALSE
c1ccc(Cc2nc3c(c(OCCc4ccncc4)n2)CCNCC3)cc1 : FALSE
CN1CCC(COc2nc(Cc3ccccc3)nc3c2CCNCC3)CC1 : TRUE

Now for another entry.
Task item: # check: Emax of CCCNc1nc2c(c(N3CCSCC3)n1)CCNCC2 is greater than or equal to 70%
Reply: FALSE

---

Recorded pEC50 by entry
# assaySystem: human recombinant 5-HT2c receptor (Homo sapiens, UniProt P28335)
# Sequence (P28335 33-458): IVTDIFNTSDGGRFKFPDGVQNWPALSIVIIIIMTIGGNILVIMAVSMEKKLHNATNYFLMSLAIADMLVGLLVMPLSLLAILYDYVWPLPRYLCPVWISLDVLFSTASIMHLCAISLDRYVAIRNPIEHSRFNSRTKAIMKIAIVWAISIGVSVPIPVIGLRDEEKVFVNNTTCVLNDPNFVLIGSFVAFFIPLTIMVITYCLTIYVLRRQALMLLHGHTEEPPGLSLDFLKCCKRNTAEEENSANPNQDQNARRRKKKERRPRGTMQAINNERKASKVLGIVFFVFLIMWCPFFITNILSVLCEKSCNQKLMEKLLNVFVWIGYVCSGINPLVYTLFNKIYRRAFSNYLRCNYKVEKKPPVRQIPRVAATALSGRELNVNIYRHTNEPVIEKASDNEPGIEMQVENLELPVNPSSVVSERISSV
# experimentalProtocol: FLIPR fluorescent Ca2+ mobilisation agonist assay in CHO K1 cells (Method 1)
# setupConditions: agonist affinity, FLIPR
Counter-ions that a name gives are not always drawn.
Formally, pEC50 is defined as -log10 of the concentration c, with c in mol/L.

The examples below pair each entry with its known result.
OC1CCN(c2nc(Cc3ccccc3)nc3c2CCNCC3)C1 (stereo not shown) [Example 44, hydrochloride] : 6.87
Cc1cccc(Cc2ncc3c(n2)CCNCC3)c1 [Example 65] : 6.68
CCCNc1nc2c(c(N3CCSCC3)n1)CCNCC2 [Example 111] : 6.85

Task item: Provide pEC50 value for the following compound: CN(C)c1nc(N2CCOCC2)nc2c1CCNCC2 [Example 97]
Reply: 7.17

Task item: Supply measured pEC50 of FC1CCN(c2nc(Cc3ccccc3)nc3c2CCNCC3)C1 (stereo not shown) [Example 43, hydrochloride] in your reply.
Reply: 6.72

Task item: Note pEC50 for the compound shown: CN(C)c1nc2c(c(N(C)C)n1)CCNCC2 [Example 107]
Reply: 6.44

Task item: Report measured pEC50; entry is c1ccc(Cc2nc3c(c(-n4cccn4)n2)CCNCC3)cc1 [Example 1]
Reply: 6.65

Task item: Indicate the recorded pEC50 value for this compound: Cc1ccc(Cc2ncc3c(n2)CCNCC3)cc1 [Example 64]
Reply: 7.00

Task item: Note down pEC50 recorded for Fc1ccc(Cc2ncc3c(n2)CCNCC3)cc1 [Example 62]
Reply: 6.51

Task item: Write down pEC50 measured for item CN1CCC(COc2nc(Cc3ccccc3)nc3c2CCNCC3)CC1 [Example 85]
Reply: 6.38

---

# assaySystem: human recombinant 5-HT2c receptor (Homo sapiens, UniProt P28335)
# experimentalProtocol: FLIPR fluorescent Ca2+ mobilisation agonist assay in CHO K1 cells (Method 1)
# setupConditions: agonist affinity, FLIPR
Counter-ions that a name gives are not always drawn.
reportedProperty: log10(EC50) (log10 of the value in µM)
Form field - Quantity: EC50; Unit: µM; Scale: log10

Worked examples, 4 compounds total:
N#Cc1ccc(CCOc2nc(Cc3ccccc3)nc3c2CCNCC3)cc1 : -1.24
c1ccc(Cc2nc3c(c(NC4CCOC4)n2)CCNCC3)cc1 (stereo not shown) [Example 39, hydrochloride] : -0.29
Fc1cccc(Cc2ncc3c(n2)CCNCC3)c1 : -0.90
c1ccc(Cc2nc3c(c(OCC4CCOCC4)n2)CCNCC3)cc1 : -0.74

Task item: Supply log10(EC50) value. Item: CCN(C)c1nc2c(c(NC)n1)CCNCC2
Reply: -0.76

Task item: Please report the measured log10(EC50) for CC(C)(c1ccccc1)c1nc2c(c(N3CCOCC3)n1)CCNCC2
Reply: -0.05

Data origin, for the record: patent US7928099B2
